- System: MOLT4 cells
- run description: Proliferation assay
- Format: cell-based, human
- conditions: Homo sapiens, MOLT-4, 72 h, read-out: proliferation IC50
pIC50: −log10 of the molar value.

- molecule: "CC(C)(C)c1cnc(CSc2cnc(NC(=O)C3CCNCC3)s2)o1"
  pIC50: 6.76
- molecule: "CC(C)(C)c1cnc(CSc2cnc(NC(=O)C3CCN(CC(=O)NCCOCCOCCOCCNc4cccc5c4C(=O)N(C4CCC(=O)NC4=O)C5=O)CC3)s2)o1 (centres unmarked)"
  pIC50: 7.30

* * *

- study target: CDK2/CycA (Homo sapiens, UniProt P24941)
- run description: Z'LYTE in vitro kinase assay

- compound: "CC(C)(C)c1cnc(CSc2cnc(NC(=O)C3CCN(CC(=O)NCCOCCOCCOCCNc4cccc5c4C(=O)N(C4CCC(=O)NC4=O)C5=O)CC3)s2)o1 (stereo not shown) [THAL-SNS-032]"
  study target: "CDK2/CycA (Homo sapiens, UniProt P24941)"
  IC50, nM: 62
